Taken from patent US12275719B2.

- assayed-target: His-tagged recombinant human Gal-3 (hGal-3) (Homo sapiens)
- Sequence (P17931 whole entry): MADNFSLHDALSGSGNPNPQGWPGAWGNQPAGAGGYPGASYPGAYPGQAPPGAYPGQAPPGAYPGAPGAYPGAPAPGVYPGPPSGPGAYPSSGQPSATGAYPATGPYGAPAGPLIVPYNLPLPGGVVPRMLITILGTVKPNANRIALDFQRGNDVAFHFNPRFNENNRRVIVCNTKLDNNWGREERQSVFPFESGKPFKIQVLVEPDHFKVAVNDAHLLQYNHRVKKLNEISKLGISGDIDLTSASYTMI
- procedure-text: Gal-3 HTRF assay (hGal-3 / B-ASF binding inhibition)
- stated-conditions: Examples 26 to 29 and 66 to 68; HTRF, 15 nM hGal-3, 15 nM B-ASF
measured-quantity: pIC50
Reminder that pIC50 means the negative base-10 logarithm of the concentration expressed in mol/L.

Example entries and their recorded answers appear below.
[[record]]
compound = "Cn1nc([C@@H]2O[C@H](CO)[C@H](O)[C@H](n3cc(-c4ccc(Br)c(F)c4F)nn3)[C@H]2O)n(-c2cc(Cl)ccc2C(F)(F)F)c1=S [Example 66]"
val = 6.12

[[record]]
compound = "OC[C@H]1O[C@@H](c2nncn2-c2ccc3ncsc3c2)[C@H](OCC(F)F)[C@@H](n2cc(-c3cc(F)c(Br)c(F)c3)nn2)[C@H]1O"
val = 7.60

[[record]]
compound = "OC[C@H]1O[C@@H](c2n[nH]c(=S)n2-c2cc(Cl)ccc2C(F)(F)F)[C@H](O)[C@@H](n2cc(-c3ccc(Br)c(F)c3F)nn2)[C@H]1O (single isomer, unassigned) [Example 28]"
val = 8.16


// next item, pIC50 requested
Problem: Report pIC50, nothing else, for this compound: OC[C@H]1O[C@@H](c2nncn2-c2cc(Cl)ccc2C(F)(F)F)[C@H](OCC(F)F)[C@@H](n2cc(-c3ccc(Br)c(F)c3F)nn2)[C@H]1O
Solution: 7.96
